- Measured target: human TMEM16A (TMEM16Aabc variant) (Homo sapiens, UniProt Q5XXA6, DEL476-501, form not given)
- Sequence (Q5XXA6 with tags, fused parts or gaps DEL476-501): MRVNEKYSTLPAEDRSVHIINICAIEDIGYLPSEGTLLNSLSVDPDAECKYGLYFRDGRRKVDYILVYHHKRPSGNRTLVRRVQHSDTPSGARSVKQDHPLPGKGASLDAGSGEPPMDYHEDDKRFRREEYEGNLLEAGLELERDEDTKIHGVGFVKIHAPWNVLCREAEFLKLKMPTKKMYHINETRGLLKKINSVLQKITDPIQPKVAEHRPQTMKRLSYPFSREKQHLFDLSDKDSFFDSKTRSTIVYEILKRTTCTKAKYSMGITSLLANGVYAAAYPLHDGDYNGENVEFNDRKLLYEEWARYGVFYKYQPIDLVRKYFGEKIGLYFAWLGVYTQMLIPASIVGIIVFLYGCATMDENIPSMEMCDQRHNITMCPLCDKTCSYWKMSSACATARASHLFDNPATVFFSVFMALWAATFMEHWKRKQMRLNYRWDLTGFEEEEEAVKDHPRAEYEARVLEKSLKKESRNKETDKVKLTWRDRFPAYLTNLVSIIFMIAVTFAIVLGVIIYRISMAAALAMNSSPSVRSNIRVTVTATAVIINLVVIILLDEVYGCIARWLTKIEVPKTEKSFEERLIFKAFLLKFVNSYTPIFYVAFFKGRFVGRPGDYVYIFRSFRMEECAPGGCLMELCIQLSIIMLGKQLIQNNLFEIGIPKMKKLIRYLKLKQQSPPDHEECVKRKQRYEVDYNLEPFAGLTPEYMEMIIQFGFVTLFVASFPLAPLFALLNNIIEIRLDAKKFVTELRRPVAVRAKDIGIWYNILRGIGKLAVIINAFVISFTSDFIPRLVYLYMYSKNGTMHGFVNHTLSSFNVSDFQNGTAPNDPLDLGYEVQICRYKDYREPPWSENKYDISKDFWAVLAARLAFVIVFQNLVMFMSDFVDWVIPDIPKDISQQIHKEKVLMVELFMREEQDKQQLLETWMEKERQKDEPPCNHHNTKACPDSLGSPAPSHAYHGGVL
- Assay: Automated whole-cell patch clamp (Qpatch) TMEM16A potentiator assay in FRT cells stably expressing human TMEM16A
- Format: cell-based
- Measurement conditions: 3.33 μM solution of test compound; percentage increase of baseline TMEM16A current
Class key for % Potentiation @ 3.33 μM Avg values: lower bin: < 90%; middle bin: ≥ 90% and < 200%; upper bin: ≥ 200%

Sample answers from the record:
COc1cc(F)ccc1CC(=O)Nc1ccnc(C(=O)NC(C)(C)C)c1 [Example 5.2] = lower bin
C[C@H](NC(=O)Nc1ccnc(C(=O)NC(C)(C)C)c1)c1ccccc1 [Example 64.4] = lower bin

Bin? COCC(C)(C#N)NC(=O)c1cc(NC(=O)Cc2cc(Cl)ccc2O)ccn1 (stereo not drawn) [Example 35.27]
upper bin

Exercise: read the entry N#CC1(NC(=O)c2cc(NC(=O)Cc3cc(Cl)ccc3O)ccn2)CCOCC1 [Example 31] and state which class it falls under.
upper bin

Band for O=C(Cc1cc(Cl)ccc1O)Nc1ccnc(C(=O)N[C@H]2CC[C@@H](O)CC2)c1 [Example 7.12] ?
middle bin

* * *

- Measured target: human TMEM16A (TMEM16Aabc variant) (Homo sapiens, UniProt Q5XXA6, DEL476-501, form not given)
- Assay: Automated whole-cell patch clamp (Qpatch) TMEM16A potentiator assay in FRT cells stably expressing human TMEM16A
- Measurement conditions: calculated EC50, Qpatch TMEM16A current at +70 mV
Let's look at some compounds and their measured pEC50.
Scale: pEC50 equals -log10([C]), with [C] in mol/L.

O=C(Cc1ccccc1F)Nc1ccnc(C(=O)NC23CCC(F)(C2)C3)c1 = 6.46
CC1(NC(=O)c2cc(NC(=O)Cc3cc(Cl)c(F)cc3O)ccn2)CCC1 = 6.66
C#CC(C)(C)NC(=O)c1cc(NC(=O)Cc2ccc(C(F)(F)F)cc2)ccn1 = 6.74
C#CC(C)(C)NC(=O)c1cc(NC(=O)Cc2ccc(Cl)cc2O)ccn1 = 7.70
C#CC1(NC(=O)c2cc(NC(=O)Cc3cc(Cl)ccc3O)ccn2)CCCC1 = 8.00

# get_value(readout='pEC50', item= O=C(Cc1cc(Cl)ccc1O)Nc1ccnc(C(=O)NC2(CCO)CCOCC2)c1 )
6.12

Tell me the measured pEC50 of CC(C)(C)NC(=O)c1cc(NC(=O)Cc2ccc3nccnc3c2)ccn1 , please.
5.92

Report pEC50 for CC(C)(C)NC(=O)c1cc(NC(=O)Cc2cc(O)cc(Cl)c2)ccn1 [Example 3.17b] please.
6.92

Which pEC50 is reported for this compound? O=C(Cc1cc(Cl)ccc1O)Nc1ccnc(C(=O)NC2CCCCC2)c1
7.10

Give the measured pEC50 of CC(C)(C)NC(=O)c1cc(NC(=O)Cc2cc(Cl)ccc2O)ccc1O .
6.05

For CC(C)(C)NC(=O)c1cc(F)cc(NC(=O)Cc2cc(Cl)ccc2O)c1 , what is its reported pEC50?
6.35

Please look up its pEC50: COc1cccc(O)c1CC(=O)Nc1cccc(C(=O)NC(C)(C)C)c1
5.54

pEC50 lookup needed for O=C(Cc1cc(Cl)ccc1O)Nc1ccnc(C(=O)NCCCc2ccccc2)c1 , thanks.
6.55

I would be grateful if you could share the reported pEC50 for O=C(Cc1cc(Cl)ccc1O)Nc1ccnc(C(=O)NC23CC(C2)C3)c1 .
7.30

Report pEC50 for CC1(NC(=O)c2cccc(NC(=O)Cc3cc(Cl)ccc3O)c2)CCOCC1 please.
6.04

Quick one: pEC50 of CC(C)(C#N)NC(=O)c1cc(NC(=O)Cc2ccc(C(C)(C)C)c(O)c2)ccn1 ?
7.15

pEC50 lookup needed for O=C(Cc1cc(Cl)ccc1O)Nc1ccnc(C(=O)N[C@H]2CCCC[C@@H]2O)c1 (single isomer, unassigned) [Example 31.3a] , thanks.
6.26

// pEC50 lookup, key: CC1(NC(=O)c2cc(NC(=O)Cc3cc(Cl)ccc3O)ccn2)CCCCC1
6.82

Query (compound): CC(C)(C)NC(=O)c1cc(NC(=O)C2Cc3ccccc3C2)ccn1 ; field requested: pEC50
6.33

Which measured pEC50 value corresponds to O=C(Cc1ccccc1Cl)Nc1ccnc(C(=O)NC23CCC(F)(C2)C3)c1 ?
6.74

What value of pEC50 has been recorded for this entry: CC(C)(C)NC(=O)c1cc(NC(=O)C2CCc3cccc(O)c32)ccn1 (centres unmarked) [Example 3.10b]
6.34

Sample C#CC(C)(C)NC(=O)c1cc(NC(=O)CC2CCC(F)(F)CC2)ccn1 — what was its pEC50?
6.19

Please give the measured pEC50 for this compound: CC(C)(C)c1ccc(O)c(CC(=O)Nc2ccnc(C(=O)NC3(C#N)CCOCC3)c2)c1
6.85

Entry CCC(C)(C)NC(=O)c1cc(NC(=O)Cc2ccc(F)cc2O)ccn1 : reported pEC50 = ?
6.74
